Here the recorded Kd is given for each entry.
test.target: UniProt:P22413
Sequence (P22413 98-925): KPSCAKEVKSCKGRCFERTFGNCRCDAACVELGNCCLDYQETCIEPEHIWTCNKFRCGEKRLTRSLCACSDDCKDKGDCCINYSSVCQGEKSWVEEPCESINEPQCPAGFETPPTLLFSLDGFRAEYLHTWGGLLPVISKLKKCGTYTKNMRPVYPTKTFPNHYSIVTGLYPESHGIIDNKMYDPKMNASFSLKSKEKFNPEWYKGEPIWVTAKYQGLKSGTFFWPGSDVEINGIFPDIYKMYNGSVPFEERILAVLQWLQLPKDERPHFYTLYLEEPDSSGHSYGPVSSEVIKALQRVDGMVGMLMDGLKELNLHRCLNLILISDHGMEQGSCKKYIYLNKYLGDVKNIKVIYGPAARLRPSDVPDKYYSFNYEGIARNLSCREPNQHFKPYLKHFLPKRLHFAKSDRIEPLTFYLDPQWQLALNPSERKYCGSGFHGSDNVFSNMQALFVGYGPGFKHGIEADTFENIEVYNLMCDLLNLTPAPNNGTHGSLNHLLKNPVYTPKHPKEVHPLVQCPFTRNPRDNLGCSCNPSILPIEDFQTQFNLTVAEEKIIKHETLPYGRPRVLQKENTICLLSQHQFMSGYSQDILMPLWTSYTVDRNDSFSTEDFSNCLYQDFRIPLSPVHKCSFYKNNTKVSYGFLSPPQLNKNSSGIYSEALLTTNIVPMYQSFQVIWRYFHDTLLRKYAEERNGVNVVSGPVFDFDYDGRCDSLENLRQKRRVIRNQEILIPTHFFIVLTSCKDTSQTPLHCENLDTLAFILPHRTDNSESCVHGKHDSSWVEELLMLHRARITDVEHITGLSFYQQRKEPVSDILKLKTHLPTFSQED
assay.text: Surface plasmon resonance (SPR) binding to immobilised hENPP1 98–925, 1:1 steady-state affinity model
Design: hENPP1^98–925 was coupled to the chip surface at 25°C; made in house; host or cells: 293-F cells (human), with 5 µM kifunensine
condition.details: Determined by SPR, triplicates ± SD; 25°C, pH 7.4
measure.name: Kd (nM)

record.smiles: COc1cc2ncnc(N3CCC(CNS(N)(=O)=O)CC3)c2cc1OC
test.target: UniProt:P22413
quantitative.readout: 55

record.smiles: Nc1nc(=O)c2ncn([C@@H]3O[C@H](COP(=O)(O)O)[C@@H](O)[C@H]3O)c2[nH]1
test.target: UniProt:P22413
quantitative.readout: 470

record.smiles: COc1ccc2c(Oc3ccc(NS(N)(=O)=O)cc3)ccnc2c1
test.target: UniProt:P22413
quantitative.readout: 100

record.smiles: Nc1nc2c(ncn2[C@@H]2O[C@@H]3COP(=O)(O)O[C@H]4[C@@H](O)[C@H](n5cnc6c(N)ncnc65)O[C@@H]4COP(=O)(O)O[C@H]3[C@H]2O)c(=O)[nH]1
test.target: UniProt:P22413
quantitative.readout: 1300

record.smiles: Nc1ncnc2c1ncn2[C@@H]1O[C@H](COP(=O)(O)OP(=O)(O)O)[C@@H](O)[C@H]1O
test.target: UniProt:P22413
quantitative.readout: 56

record.smiles: O=c1ccn([C@@H]2O[C@H](COP(=O)(O)O)[C@@H](O)[C@H]2O)c(=O)[nH]1
test.target: UniProt:P22413
quantitative.readout: 1100

record.smiles: Nc1ccn([C@@H]2O[C@H](COP(=O)(O)O)[C@@H](O)[C@H]2O)c(=O)n1
test.target: UniProt:P22413
quantitative.readout: 1500

record.smiles: Nc1ncnc2c1ncn2[C@@H]1O[C@H](COP(=O)(O)O)[C@@H](O)[C@H]1O
test.target: UniProt:P22413
quantitative.readout: 103

record.smiles: Cc1cn([C@H]2C[C@H](O)[C@@H](COP(=O)(O)O)O2)c(=O)[nH]c1=O
test.target: UniProt:P22413
quantitative.readout: 1800
